Kindly supply the reported pIC50 values for the records listed here.
target: UniProt:P31645
Sequence (P31645 whole entry): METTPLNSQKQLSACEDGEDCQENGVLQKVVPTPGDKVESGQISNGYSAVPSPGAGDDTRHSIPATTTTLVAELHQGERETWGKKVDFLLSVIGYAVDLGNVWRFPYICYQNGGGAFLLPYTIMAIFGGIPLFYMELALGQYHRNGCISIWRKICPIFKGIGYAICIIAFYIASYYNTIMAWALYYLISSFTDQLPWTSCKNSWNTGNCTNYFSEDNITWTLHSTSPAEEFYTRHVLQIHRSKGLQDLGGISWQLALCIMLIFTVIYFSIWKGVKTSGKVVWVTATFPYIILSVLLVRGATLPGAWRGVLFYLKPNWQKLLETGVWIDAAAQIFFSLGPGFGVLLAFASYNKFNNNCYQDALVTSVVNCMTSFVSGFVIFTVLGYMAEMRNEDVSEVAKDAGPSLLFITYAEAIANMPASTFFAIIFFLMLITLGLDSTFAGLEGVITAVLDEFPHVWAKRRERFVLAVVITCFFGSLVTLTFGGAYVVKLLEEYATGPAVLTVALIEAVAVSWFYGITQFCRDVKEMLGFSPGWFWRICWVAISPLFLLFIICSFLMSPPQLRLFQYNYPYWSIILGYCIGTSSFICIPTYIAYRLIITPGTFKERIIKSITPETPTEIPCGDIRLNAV
pIC50 is defined as minus the log10 of a concentration measured in mol/L.

Q: Any idea what pIC50 was measured for Clc1ccc2[nH]cc(CCC3CCNCC3)c2c1 ?
A: 6.66

Q: Any idea what pIC50 was measured for Cn1cc(CCC2CCNCC2)c2ccccc21 ?
A: 6.40

Q: Any idea what pIC50 was measured for c1ccc2c(CCC3CCNCC3)c[nH]c2c1 [INDALPINE] ?
A: 7.52

Q: Any idea what pIC50 was measured for Fc1ccc2[nH]cc(CC3CCNCC3)c2c1 ?
A: 6.77

Q: Any idea what pIC50 was measured for Oc1ccc2[nH]cc(CCC3CCNCC3)c2c1 ?
A: 7.70

Q: Any idea what pIC50 was measured for c1ccc2c(CC3CCNCC3)c[nH]c2c1 ?
A: 6.26

Q: Any idea what pIC50 was measured for c1ccc2c(CCCC3CCNCC3)c[nH]c2c1 ?
A: 7.22

Q: Any idea what pIC50 was measured for Brc1ccc2[nH]cc(CC3CCNCC3)c2c1 ?
A: 6.00

* * *

Kindly supply the reported IC50 values for the records listed here.
molecular target: Norepinephrine transporter (Rattus norvegicus, UniProt Q9WTR4); test: Inhibition of uptake of noradrenaline in rat brain hypothalamus
Sequence (Q9WTR4 whole entry): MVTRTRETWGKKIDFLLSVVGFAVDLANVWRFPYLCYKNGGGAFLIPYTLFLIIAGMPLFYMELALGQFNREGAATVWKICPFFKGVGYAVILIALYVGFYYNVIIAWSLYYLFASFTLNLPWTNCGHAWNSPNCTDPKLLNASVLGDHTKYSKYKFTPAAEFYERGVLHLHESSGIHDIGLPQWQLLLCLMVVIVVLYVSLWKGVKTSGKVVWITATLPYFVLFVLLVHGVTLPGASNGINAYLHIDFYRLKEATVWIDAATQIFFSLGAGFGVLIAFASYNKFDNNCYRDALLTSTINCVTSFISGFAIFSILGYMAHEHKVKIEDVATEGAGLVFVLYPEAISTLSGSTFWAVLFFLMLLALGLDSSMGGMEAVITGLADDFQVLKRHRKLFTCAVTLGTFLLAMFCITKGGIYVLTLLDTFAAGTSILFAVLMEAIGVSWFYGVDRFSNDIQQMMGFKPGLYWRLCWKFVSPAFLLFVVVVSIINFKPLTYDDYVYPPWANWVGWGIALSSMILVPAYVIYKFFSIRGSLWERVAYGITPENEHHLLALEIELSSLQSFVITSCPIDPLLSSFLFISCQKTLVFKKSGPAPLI
Please reply with the bare figure in nM and do not write the unit itself.

Q: Norepinephrine transporter (Rattus norvegicus, UniProt Q9WTR4) / IC50 / Cc1[nH]c2ccccc2c1CCC1CCNCC1 : value?
A: 6500

Q: Norepinephrine transporter (Rattus norvegicus, UniProt Q9WTR4) / IC50 / Oc1ccc2[nH]cc(CCC3CCNCC3)c2c1 : value?
A: 1000

Q: Norepinephrine transporter (Rattus norvegicus, UniProt Q9WTR4) / IC50 / CN1CCC(CCc2c[nH]c3ccccc23)CC1 : value?
A: 40000

Q: Norepinephrine transporter (Rattus norvegicus, UniProt Q9WTR4) / IC50 / Fc1ccc2[nH]cc(CC3CCNCC3)c2c1 : value?
A: 1000

Q: Norepinephrine transporter (Rattus norvegicus, UniProt Q9WTR4) / IC50 / O=C(O)/C=C/C(=O)O.c1ccc(-n2cc(CCC3CCNCC3)c3ccccc32)cc1 : value?
A: 400

* * *

Kindly supply the reported pIC50 values for the records listed here.
target: Sodium-dependent dopamine transporter (Rattus norvegicus, UniProt P23977); assay: Inhibition of uptake of dopamine (DA) rat brain striatum
Sequence (P23977 whole entry): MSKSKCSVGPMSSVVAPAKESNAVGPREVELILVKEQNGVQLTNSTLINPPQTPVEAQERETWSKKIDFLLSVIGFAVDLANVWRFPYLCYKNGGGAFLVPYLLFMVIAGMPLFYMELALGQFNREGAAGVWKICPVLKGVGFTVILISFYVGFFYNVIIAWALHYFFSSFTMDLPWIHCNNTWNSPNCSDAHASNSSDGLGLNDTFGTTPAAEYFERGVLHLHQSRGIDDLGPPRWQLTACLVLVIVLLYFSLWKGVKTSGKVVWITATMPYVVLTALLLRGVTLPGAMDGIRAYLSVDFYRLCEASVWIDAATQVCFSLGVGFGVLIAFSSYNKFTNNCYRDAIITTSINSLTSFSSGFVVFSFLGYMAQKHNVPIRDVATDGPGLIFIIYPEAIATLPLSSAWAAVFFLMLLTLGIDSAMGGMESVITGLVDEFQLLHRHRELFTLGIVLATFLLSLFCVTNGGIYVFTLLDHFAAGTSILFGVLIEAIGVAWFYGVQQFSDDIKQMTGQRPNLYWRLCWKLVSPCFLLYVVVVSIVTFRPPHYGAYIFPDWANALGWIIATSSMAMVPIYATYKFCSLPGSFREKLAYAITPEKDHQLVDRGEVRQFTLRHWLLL
pIC50 is defined as minus the log10 of a concentration measured in mol/L.

Q: Any idea what pIC50 was measured for c1ccc(Cn2cc(CCC3CCNCC3)c3ccccc32)cc1 ?
A: 6.52

Q: Any idea what pIC50 was measured for COc1ccc2[nH]cc(CCC3CCNCC3)c2c1 ?
A: 4.70

Q: Any idea what pIC50 was measured for Brc1ccc2[nH]cc(CC3CCNCC3)c2c1 ?
A: 5.10

Hello, the source for this data is ChEMBL document CHEMBL1121570, in case you need it.
